Tested on: BT-549 breast
test.protocol: NCI tumour cell line growth inhibition, 48 h
# TGI >= 20 µM gives condition met, anything below gives condition not met

Data request: Evaluate `COC(=O)CCC(=O)NC1=C(NCc2ccccc2)C(=O)c2ccccc2C1=O` : TGI at minimum 20 µM?
Data returned: condition met

Data request: Evaluate `COC(=O)[C@@H](C)C[C@H](Cc1ccccc1)NC(=O)c1csc(CC[C@H](C(C)C)N(C)C(=O)[C@@H](NC(=O)[C@H]2CCCCN2C)C(C)C)n1` : TGI at minimum 20 µM?
Data returned: condition not met

Data request: Evaluate `O=CN1CCN(C(=O)c2ccc(Cl)cc2Cl)C1=S` : TGI at minimum 20 µM?
Data returned: condition met

Data request: Evaluate `CN(C)CCCOc1ccc(-c2ccc3ncc4c(c3c2)n(C2CCOCC2)c(=O)n4C)cn1` : TGI at minimum 20 µM?
Data returned: condition not met

Data request: Evaluate Nc1ccc(C2=NN(c3ccccc3)C(c3ccc(Cl)cc3)C2)cc1 (centres undefined) : TGI at minimum 20 µM?
Data returned: condition not met

Data request: Evaluate `OCc1ccc(-c2ccc(-c3ccc(CO)o3)[se]2)o1` : TGI at minimum 20 µM?
Data returned: condition met

Data request: Evaluate `COC(=O)c1c(O)ccc2c1c1c(n2Cc2ccccc2Cl)C(=O)c2ccccc2C1=O` : TGI at minimum 20 µM?
Data returned: condition met

Data request: Evaluate `COc1ccc2c(c1)C(=O)c1c-2n(CCCN=[N+]=[N-])c(=O)c2cc(OC)c(OC)cc12` : TGI at minimum 20 µM?
Data returned: condition met

Data request: Evaluate `CC(=O)OCCCOCn1c(Cc2ccccc2)c(C)c(=O)[nH]c1=O` : TGI at minimum 20 µM?
Data returned: condition met

Data request: Evaluate `COc1cc(NC(N)=NCCC(C)(C)Oc2ccc(C(F)(F)F)cc2)ncc1C#N` : TGI at minimum 20 µM?
Data returned: condition not met

Data request: Evaluate `COc1ccc2c(C)cc(N/N=C/c3ccc(OC)c4ccccc34)nc2c1` : TGI at minimum 20 µM?
Data returned: condition met

Data request: Evaluate `[Cl][Hg][Cl]` : TGI at minimum 20 µM?
Data returned: condition met

Data request: Evaluate `O=S(=O)(O)c1cc(O)c2c(N=Cc3ccccc3O)cc(S(=O)(=O)O)cc2c1` : TGI at minimum 20 µM?
Data returned: condition met

Data request: Evaluate `COc1cc(OC)cc(N(CCNC(C)C)c2ccc3ncc(-c4cnn(C)c4)nc3c2)c1` : TGI at minimum 20 µM?
Data returned: condition not met

Data request: Evaluate `O=C(c1ccco1)N1CCCN(C(=O)c2ccco2)C1=S` : TGI at minimum 20 µM?
Data returned: condition met

Data request: Evaluate `Cc1ccsc1/C=N/Nc1nc2ccccc2s1` : TGI at minimum 20 µM?
Data returned: condition met

Data request: Evaluate `Cc1ccc(S(=O)(=O)NC(=O)C2C(=O)CC3(CCCCC3)CC2=O)cc1` : TGI at minimum 20 µM?
Data returned: condition met

Data request: Evaluate `C=C(c1ccc2nc(NC(=O)OC)[nH]c2c1)c1cccs1` : TGI at minimum 20 µM?
Data returned: condition met

Data request: Evaluate `CO[C@H]1/C=C/O[C@@]2(C)Oc3c(C)c(O)c4c(c3C2=O)C(=O)C(/C=N/N(c2ccccc2)c2ccccc2)=C(NC(=O)/C(C)=C\C=C\[C@H](C)[C@H](O)[C@@H](C)[C@@H](O)[C@@H](C)[C@H](OC(C)=O)[C@@H]1C)C4=O` : TGI at minimum 20 µM?
Data returned: condition not met

Data request: Evaluate `Cc1sc2nc(-c3ccncc3)c(/C=N/N=C(N)N)n2c1C` : TGI at minimum 20 µM?
Data returned: condition met

Data request: Evaluate `COC(=O)CCc1c[nH]c2ccc(N(CCCl)CCCl)cc12` : TGI at minimum 20 µM?
Data returned: condition met

Data request: Evaluate `CCC(CON(C)c1ccccc1)(SC)SC` : TGI at minimum 20 µM?
Data returned: condition met

Data request: Evaluate `COc1ccc(S(=O)(=O)N2CC(C)(C)CN(S(=O)(=O)c3ccc(OC)cc3)C2C(=O)NO)cc1` : TGI at minimum 20 µM?
Data returned: condition met

Data request: Evaluate CC[N+](CC)=c1sc2c(s1)C(c1ccc(Cl)cc1)Oc1ccc(Cl)cc1-2 (centres undefined) : TGI at minimum 20 µM?
Data returned: condition not met
